target: Recombinant human HSD17B13 enzyme (Homo sapiens, UniProt Q7Z5P4); experiment: HSD17b13 NAD(P)H-Glo biochemical assay; settings: 50 uM estradiol, 1 mM NAD+, NAD(P)H-Glo luminescence; read-out: HSD17β13 IC50
Sequence (Q7Z5P4 20-300): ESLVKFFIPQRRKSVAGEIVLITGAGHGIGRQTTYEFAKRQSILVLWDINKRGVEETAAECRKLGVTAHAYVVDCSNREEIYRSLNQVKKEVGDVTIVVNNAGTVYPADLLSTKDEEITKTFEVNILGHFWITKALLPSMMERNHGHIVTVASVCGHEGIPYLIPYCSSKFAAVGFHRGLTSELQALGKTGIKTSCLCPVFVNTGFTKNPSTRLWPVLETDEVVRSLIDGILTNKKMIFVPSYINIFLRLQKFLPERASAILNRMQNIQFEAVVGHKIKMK
pIC50: −log10 of the molar value.
Parameter Measured: pIC50

A selection of reference data follows.
CC1(C)CCN(c2ccc(-n3c(=O)oc4c(Br)c(F)c(O)c(F)c43)cc2)CC1 [Compound 38]: > 7.00
CC1(C(F)(F)F)CCN(c2ccc(-n3ncc4cc(F)c(O)c(F)c43)cc2)CC1 [Compound 24.8]: > 7.00
Oc1cccc(-c2ccc(-n3ncc4c(F)cc(O)cc43)cc2)c1 [Compound 2.8]: 4.52 to 6.00
Cc1c(O)c(F)cc2cnn(-c3ccc(N4CCC(C)(C)CC4)cc3)c12 [Compound 25.6]: > 7.00
Oc1ccc(-c2ccc(-n3cnc4cc(F)c(O)cc43)cc2)cc1 [Compound 9]: > 7.00
CS(=O)(=O)N1CCN(c2ccc(-n3ncc4cc(F)c(O)c(F)c43)c(F)c2)CC1 [Compound 20.8]: > 7.00
COc1cccc(-c2ccc(-n3ncc4cc(F)c(O)cc43)cc2)c1 [Compound 13.20]: 6.00 to 7.00
Oc1cc2c(cnn2-c2ccc(Oc3ccccc3)cc2)cc1F [Compound 2.3]: 6.00 to 7.00
Cc1ccccc1-c1ccc(-n2ncc3cc(F)c(O)cc32)cc1 [Compound 13.9]: 6.00 to 7.00
CS(=O)(=O)c1ccc(-c2ccc(-n3ncc4cc(F)c(O)c(F)c43)cc2)cc1 [Compound 13.40]: 6.00 to 7.00

Fill in the recorded pIC50 for this compound, with Recombinant human HSD17B13 enzyme (Homo sapiens, UniProt Q7Z5P4) as test system: Oc1c(F)cc2nnn(-c3cnc(N4CC5(CCOCC5)C4)cn3)c2c1F [Compound 26.18] 6.00 to 7.00

Fill in the recorded pIC50 for this compound, with Recombinant human HSD17B13 enzyme (Homo sapiens, UniProt Q7Z5P4) as test system: CS(=O)(=O)C1CN(c2ccc(-n3cnc4cc(F)c(O)c(F)c43)cc2)C1 [Compound 20.15] 4.52 to 6.00

Fill in the recorded pIC50 for this compound, with Recombinant human HSD17B13 enzyme (Homo sapiens, UniProt Q7Z5P4) as test system: [O-][S+]1CCC2(CC1)CN(c1ccc(-n3ncc4cc(F)c(O)c(F)c43)cc1)C2 [Compound 32.1] 6.00 to 7.00

Fill in the recorded pIC50 for this compound, with Recombinant human HSD17B13 enzyme (Homo sapiens, UniProt Q7Z5P4) as test system: Oc1c(F)cc2cnn(-c3ccc(-c4cn[nH]c4)cc3)c2c1F [Compound 14.1] 6.00 to 7.00

Fill in the recorded pIC50 for this compound, with Recombinant human HSD17B13 enzyme (Homo sapiens, UniProt Q7Z5P4) as test system: CC1CN(c2ccc(-n3ncc4cc(F)c(O)c(F)c43)cc2)CC(C)[S+]1[O-] (stereo not drawn) [Compound 32.3] 6.00 to 7.00

Fill in the recorded pIC50 for this compound, with Recombinant human HSD17B13 enzyme (Homo sapiens, UniProt Q7Z5P4) as test system: COC1(C)CCN(c2ccc(-n3ncc4cc(F)c(O)c(F)c43)cc2)CC1 [Compound 20.20] > 7.00

Fill in the recorded pIC50 for this compound, with Recombinant human HSD17B13 enzyme (Homo sapiens, UniProt Q7Z5P4) as test system: Oc1c(F)cc2nnn(-c3ccc(N4CC5(CCOCC5)C4)nn3)c2c1F [Compound 26.24] 4.52 to 6.00

Fill in the recorded pIC50 for this compound, with Recombinant human HSD17B13 enzyme (Homo sapiens, UniProt Q7Z5P4) as test system: CC1(C)CCN(c2ccc(-n3c(=O)n(CO)c4cc(F)c(O)c(F)c43)cc2)CC1 [Compound 21.12] > 7.00

Fill in the recorded pIC50 for this compound, with Recombinant human HSD17B13 enzyme (Homo sapiens, UniProt Q7Z5P4) as test system: Oc1c(F)cc2cnn(-c3ccc(N4CCCCC4)cc3)c2c1F [Compound 23.2] > 7.00
